# System: SF-539 CNS
# method.description: NCI-60 one-dose screen, 48 h (100 = growth as untreated, 0 = no growth, -100 = all killed)
# measurement.setup: 10 µM unless noted
Compounds without any hit were thinned out: in the full panel of roughly 83,000, 20% have a hit.
experimental.readout: growth (%)
I only need the number, in %, no unit after it.

compound: O=C(CC(SCc1ccccc1)c1ccccc1)c1ccccc1 (stereo not given)
growth / %: 99

Next compound, growth to be filled in.
// query Consider the compound N=c1sc(Cc2ccc(Cl)cc2)cn1CC(=O)c1ccc(F)cc1 . State its measured growth.
// result 85.5

----------
# System: HCC-2998 colon
# method.description: NCI-60 one-dose screen, 48 h
# measurement.setup: 10 µM unless noted
# Protocol: Growth inhibition of the HCC-2998 human tumor cell line is measured as a screen for anti-cancer activity. Cells are grown in 96 well plates and exposed to the test compound for 48 hours. Compounds are tested at a single concentration, which is 10^-5 M for most compounds. The reported endpoint is percent growth (GI% or GIPRCNT), where numbers from 0 - 100% represent growth inhibition, and numbers from -100% - 0 represent cell death. For example, a value of 40 represents 60% growth inhibition. […]
This is part of a sample that, as a whole, favours compounds with a hit. Of some 83,000 tested, about 20% had one in any assay. Calls of active or inactive are those of the source. Rule for the calls: active = growth percent below 10; inactive = the rest.
Allowed answers: Y (active), N (inactive)

Reference set, count: 5
molecule: O=S(=O)(Nc1cccc(Cl)c1)c1ccc(-c2cnc(C3CC3)o2)cc1
assigned.label: N
//
molecule: OC(c1cccc(-n2ccc(C(F)(F)F)n2)c1)c1cnccc1NC1CCCCCC1 (stereo not given)
assigned.label: Y
//
molecule: O=C(c1ccccc1)c1c(/C=C/c2ccc(Cl)cc2)nc2ccccc2c1/C=C/c1cccs1
assigned.label: N
//
molecule: C=CCn1c(C)nc2cc(Nc3nc(Cl)nc4ccccc34)ccc21
assigned.label: N
//
molecule: CC/C=C\C[C@H](O)C/C=C1/C(=O)C=C[C@@H]1C/C=C\CCCCO
assigned.label: Y

// query # fetch the recorded call for COc1ccc(/C=C/c2c(C(=O)/C=C/c3cccs3)c(C)nc3ccccc23)cc1 here
// result N

// query # fetch the recorded call for N=C1C(c2nc(-c3ccc(Br)cc3)cs2)=C(O)CN1CC1CCCO1 (stereo not given) here
// result N

// query # fetch the recorded call for O=C(/C=C/c1c(Cl)nc2sccn12)c1ccc(F)c(F)c1 here
// result N

// query # fetch the recorded call for COc1cccc2c1C(=O)c1c(O)c3c(c(O)c1C2=O)CC(O)(/C(C)=N/NC(=O)CCCCC(=O)N/N=C(\C)C1(O)Cc2c(O)c4c(c(O)c2C(OC2CC(N)C(O)C(C)O2)C1)C(=O)c1c(OC)cccc1C4=O)CC3OC1CC(N)C(O)C(C)O1 (stereo not given) here
// result Y

// query # fetch the recorded call for N#CC1=C(NC=O)Oc2c(ccc3ccccc23)C1c1ccccc1 (stereo not given) here
// result N

Ref: PubChem BioAssay (NCI)
